- Test system: Staphylococcus epidermidis
- Format: cell-based
- STATED CONDITIONS: Se4 (Staphylococcus epidermidis)
MEASUREMENT LABEL: Antibiotic susceptibility

COMPOUND	ASSAY SYSTEM	MEASUREMENT LABEL	MEAS VALUE
CC[C@H]1OC(=O)[C@H](C)[C@@H](O[C@H]2C[C@@](C)(OC)[C@@H](O)[C@H](C)O2)[C@H](C)[C@@H](O[C@@H]2O[C@H](C)C[C@H](N(C)C)[C@H]2O)[C@](C)(O)C[C@@H](C)C(=O)[C@H](C)[C@@H](O)[C@]1(C)O [ERY, erythromycin]	Staphylococcus epidermidis	Antibiotic susceptibility	R
C[C@H]1c2cccc(O)c2C(=O)C2=C(O)[C@]3(O)C(=O)C(C(N)=O)=C(O)[C@@H](N(C)C)[C@@H]3[C@@H](O)[C@@H]21 [DOX, doxycycline]	Staphylococcus epidermidis	Antibiotic susceptibility	S
